Numbers sourced from patent US20240092779A1.

target: recombinant USP1/UAF1 enzyme complex (Homo sapiens, UniProt O94782); assay: Enzyme assay: deubiquitinase fluorometric assay with ubiquitin-Rhodamine substrate; conditions: USP1/UAF1, Ub-Rho110 substrate, 2 hours preincubation, 1 hour reaction
Sequence (O94782 whole entry): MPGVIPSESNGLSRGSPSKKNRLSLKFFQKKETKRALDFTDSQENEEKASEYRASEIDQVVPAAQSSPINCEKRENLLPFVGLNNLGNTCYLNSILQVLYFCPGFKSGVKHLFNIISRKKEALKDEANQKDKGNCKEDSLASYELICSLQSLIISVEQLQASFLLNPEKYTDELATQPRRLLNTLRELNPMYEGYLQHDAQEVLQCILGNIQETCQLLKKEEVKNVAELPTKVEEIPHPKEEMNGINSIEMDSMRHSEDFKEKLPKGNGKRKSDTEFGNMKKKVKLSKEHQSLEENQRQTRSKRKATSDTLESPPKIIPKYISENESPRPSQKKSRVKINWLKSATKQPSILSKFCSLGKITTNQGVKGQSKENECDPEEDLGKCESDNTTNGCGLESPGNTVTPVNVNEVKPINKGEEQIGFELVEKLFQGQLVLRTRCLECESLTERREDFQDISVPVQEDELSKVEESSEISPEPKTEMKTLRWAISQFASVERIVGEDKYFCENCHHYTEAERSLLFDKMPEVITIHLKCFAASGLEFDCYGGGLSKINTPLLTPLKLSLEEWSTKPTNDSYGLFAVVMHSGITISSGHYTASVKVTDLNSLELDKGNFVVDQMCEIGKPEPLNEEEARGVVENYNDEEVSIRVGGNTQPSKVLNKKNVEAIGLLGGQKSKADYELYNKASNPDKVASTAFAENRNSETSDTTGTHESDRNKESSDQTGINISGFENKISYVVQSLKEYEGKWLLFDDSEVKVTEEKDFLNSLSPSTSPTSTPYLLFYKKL
Sequence (Q8TAF3 whole entry partner): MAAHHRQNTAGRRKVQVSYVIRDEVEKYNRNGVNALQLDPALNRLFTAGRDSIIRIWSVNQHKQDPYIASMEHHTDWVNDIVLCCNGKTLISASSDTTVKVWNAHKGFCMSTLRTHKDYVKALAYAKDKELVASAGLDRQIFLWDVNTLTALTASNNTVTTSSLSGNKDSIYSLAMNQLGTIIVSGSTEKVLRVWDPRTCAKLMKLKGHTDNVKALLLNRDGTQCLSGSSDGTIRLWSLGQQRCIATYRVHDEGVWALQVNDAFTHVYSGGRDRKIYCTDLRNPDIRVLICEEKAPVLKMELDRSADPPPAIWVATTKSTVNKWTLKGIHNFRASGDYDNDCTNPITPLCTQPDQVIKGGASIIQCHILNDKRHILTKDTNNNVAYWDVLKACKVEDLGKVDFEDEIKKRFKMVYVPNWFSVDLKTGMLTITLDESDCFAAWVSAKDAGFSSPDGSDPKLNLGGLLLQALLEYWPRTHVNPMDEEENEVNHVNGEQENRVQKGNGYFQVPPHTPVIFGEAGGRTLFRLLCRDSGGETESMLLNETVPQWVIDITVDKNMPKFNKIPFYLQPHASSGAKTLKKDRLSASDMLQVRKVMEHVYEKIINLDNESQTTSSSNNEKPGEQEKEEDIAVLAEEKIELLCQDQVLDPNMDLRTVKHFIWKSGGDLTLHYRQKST
measurement_type: IC50

>>> result("COc1cc(Cn2c(=O)ccc3cnc(-c4c(OC)ncnc4C4CC4)nc32)cc(F)c1-c1nc(C(F)(F)F)cn1C1CC1 [Compound 53]")
"10 to 100 nM"
>>> result("CCn1cc(C(F)(F)F)nc1-c1ccc(Cn2c(=O)c(C(=O)N3CCN(C)CC3)cc3cnc(-c4c(OC)ncnc4C4CC4)nc32)cc1 [Compound I-30]")
"10 to 100 nM"
>>> result("CC(C)n1ncc(Cl)c1-c1ncc2ccc(=O)n(Cc3ccc(-c4nc(C(F)(F)F)cn4C)cc3)c2n1 [Compound I-44]")
"10 to 100 nM"

###

assay: Liver microsomal stability (HLM); format: in vitro ADME; details: human, liver microsomes, human liver microsomes 0.5 mg/mL, 1 μM compound, NADPH
measurement_type: microsomal CLint at 1 μM

>>> result("COc1ncnc(C2CC2)c1-c1ncc2cc(C3CCN(C)CC3)c(=O)n(Cc3ccc(-n4nc(C(F)(F)F)cc4C)cc3)c2n1")
"< 10 µL/min/mg"
>>> result("COc1ncnc(C2CC2)c1-c1ncc2ccc(=O)n(Cc3ccc(-c4nc(C(F)(F)F)cn4C(C)C)c(F)c3OC)c2n1")
"10 to 50 µL/min/mg"
>>> result("COc1ncnc(C2CC2)c1-c1ncc2cc(-c3cnn(C4CCN(C)CC4)c3)c(=O)n(Cc3ccc(-c4nc(C(F)(F)F)cn4C4CC4)cc3)c2n1")
"10 to 50 µL/min/mg"
>>> result("COc1cc(Cn2c(=O)ccc3cnc(-c4c(OC)ncnc4C4CC4)nc32)ccc1-n1nc(C(F)(F)F)cc1OC")
"< 10 µL/min/mg"
>>> result("COc1ncnc(C2CC2)c1-c1ncc2cc(-c3cnc(C)nc3)c(=O)n(Cc3ccc(-c4nc(C(F)(F)F)cn4C4CC4)cc3)c2n1")
"< 10 µL/min/mg"
>>> result("COc1ncnc(C2CC2)c1-c1ncc2cc(-c3cn(C)c(C)n3)c(=O)n(Cc3ccc(-c4nc(C(F)(F)F)cn4C4CC4)cc3)c2n1")
"10 to 50 µL/min/mg"
>>> result("COc1ncnc(C2CC2)c1-c1ncc2cc(-c3cnn(CCO)c3)c(=O)n(Cc3ccc(-c4nc(C(F)(F)F)cn4C4CC4)cc3)c2n1")
"< 10 µL/min/mg"
>>> result("COc1ncnc(C2CC2)c1-c1ncc2cc(-c3cnn(C)c3)c(=O)n(Cc3ccc(-c4nc(C(F)(F)F)cn4C(C)C)cc3)c2n1")
"< 10 µL/min/mg"
>>> result("COc1ncnc(C2CC2)c1-c1ncc2cc(C(C)(C)O)c(=O)n(Cc3ccc(-c4nc(C(F)(F)F)cn4C4CC4)cc3)c2n1")
"< 10 µL/min/mg"
>>> result("[2H]C([2H])([2H])n1cc(C(F)(F)F)nc1-c1ccc(Cn2c(=O)ccc3cnc(-c4c(OC)ncnc4C4CC4)nc32)cc1")
"10 to 50 µL/min/mg"
>>> result("COCCN1CCC(c2cc3cnc(-c4c(OC)ncnc4C4CC4)nc3n(Cc3ccc(-c4nc(C(F)(F)F)cn4C4CC4)cc3)c2=O)CC1")
"< 10 µL/min/mg"
>>> result("COc1cc(Cn2c(=O)ccc3cnc(-c4c(OC)ncnc4C4CC4)c(F)c32)ccc1-c1nc(C(F)(F)F)cn1C1CC1")
"10 to 50 µL/min/mg"
>>> result("COc1ncnc(C2CC2)c1-c1cc2c(ccc(=O)n2Cc2ccc(-c3nc(C(F)(F)F)cn3C)cc2)cn1")
"10 to 50 µL/min/mg"
>>> result("[2H]C([2H])([2H])n1cc(C(F)(F)F)nc1-c1ccc(C([2H])([2H])n2c(=O)ccc3cnc(-c4c(OC)ncnc4C4CC4)nc32)cc1")
"10 to 50 µL/min/mg"
>>> result("COc1ncnc(C2CC2)c1-c1ncc2nc(N3CCN(C)CC3)c(=O)n(Cc3ccc(-c4nc(C(F)(F)F)cn4C4CC4)cc3)c2n1")
"10 to 50 µL/min/mg"
>>> result("COc1ncnc(C2CC2)c1-c1ncc2cc(C3=CCN(C)CC3)c(=O)n(Cc3ccc(-c4nc(C(F)(F)F)cn4C(C)C)cc3)c2n1")
"< 10 µL/min/mg"
>>> result("COc1ncnc(C2CC2)c1-c1ncc2cc(-c3cnn(CCN(C)C)c3)c(=O)n(Cc3ccc(-c4nc(C(F)(F)F)cn4C4CC4)cc3)c2n1")
"10 to 50 µL/min/mg"
>>> result("COc1ncnc(C2CC2)c1-c1ncc2cc(-c3c(C)cnn3C)c(=O)n(Cc3ccc(-c4nc(C(F)(F)F)cn4C4CC4)cc3)c2n1")
"10 to 50 µL/min/mg"
